Test system: SNB-19 CNS
Assay: NCI-60 one-dose screen, 48 h (100 = growth as untreated, 0 = no growth, -100 = all killed)
Details: 10 µM unless noted
This is part of a sample that, as a whole, favours compounds with a hit. Of some 83,000 tested, about 20% had one in any assay.
recorded-endpoint: growth (%)
Entry rule: numbers only, all in %.

Ask: Enter recorded growth with SNB-19 CNS for CCCn1cnc2c(c1=N)C(c1ccc(Cl)cc1)c1sc3c(C)cccc3c1O2 (stereo not drawn) here.
Reply: 26.5

Ask: Enter recorded growth with SNB-19 CNS for COc1cccc(/C=C(/C)c2ccc3cccc(OC)c3[o+]2)c1O here.
Reply: 95.6

Ask: Enter recorded growth with SNB-19 CNS for O=C(O)c1ccc(-n2cc(CNc3cccc(Cl)c3)c(-c3ccc(F)cc3)n2)cc1 here.
Reply: 99.3

Ask: Enter recorded growth with SNB-19 CNS for CCn1c(SCC(=O)Nc2cccc(C(=O)/C=C/c3ccccc3Cl)c2)nc2ccccc2c1=O here.
Reply: 82.3

Ask: Enter recorded growth with SNB-19 CNS for CCOC(=O)C(=O)/C(=C\c1ccc(Cl)cc1)C(=O)N1C(=S)NC(=O)C1CC(C)C (stereo not drawn) here.
Reply: 99.1

Ask: Enter recorded growth with SNB-19 CNS for CC(C)(C)c1ccc(CC(=O)Nc2sc3c(c2C(N)=O)CCC(=O)C3)cc1 here.
Reply: 22.8

Ask: Enter recorded growth with SNB-19 CNS for O=C1Nc2ccccc2/C1=C/c1ccc(CO)n1-c1ccc(Cl)cc1 here.
Reply: 66.1

Ask: Enter recorded growth with SNB-19 CNS for Cn1cc(-c2nc(N)nnc2-c2c[nH]c3ccccc23)c2cc(Br)ccc21 here.
Reply: 27

Ask: Enter recorded growth with SNB-19 CNS for COc1ccc2c(c1)c(CC(=O)[Se]CC#N)c(C)n2C(=O)c1ccc(Cl)cc1 here.
Reply: 50.3

Ask: Enter recorded growth with SNB-19 CNS for Cc1nn(-c2ccccc2)c2ncnc(N/N=C/c3ccccc3O)c12 here.
Reply: 17.5

Ask: Enter recorded growth with SNB-19 CNS for Cn1ccnc1C(=O)/C=C/c1ccc(NC(=O)c2c(F)c(F)c(F)c(F)c2F)cc1 here.
Reply: 98.3

Ask: Enter recorded growth with SNB-19 CNS for COc1cc(/C=N/NC(=O)c2cn(C3CC3)c3c(OC)c(N4CC5CCCNC5C4)c(F)cc3c2=O)ccc1O (stereo not drawn) here.
Reply: 26.2

Ask: Enter recorded growth with SNB-19 CNS for Nc1ncc(-c2ccc3ncnc(N4CCc5cc(F)c(Cl)cc54)c3c2)cn1 here.
Reply: 43

Ask: Enter recorded growth with SNB-19 CNS for CC(c1ccccc1)N1CSc2nc3ncncc3n2C1 (stereo not drawn) here.
Reply: 99.5

Ask: Enter recorded growth with SNB-19 CNS for FC(F)(F)c1cc(Nc2cccc(Oc3ccc(NC4=NCCN4)nc3)c2)ccc1Cl here.
Reply: 9.09

Ask: Enter recorded growth with SNB-19 CNS for Cc1cccc2c3c(sc12)C(c1ccc(Cl)cc1)c1c(nc(CC(=O)Nc2ccccc2)[nH]c1=O)O3 (stereo not drawn) here.
Reply: 64.5

Ask: Enter recorded growth with SNB-19 CNS for CC1(C)[C@@H](O)CC[C@]2(C)[C@H]3CC[C@@H]4[C@H]5[C@H](C(=O)/C=C\c6ccncc6)CC[C@]5(O)CC[C@@]4(C)[C@]3(C)CC[C@@H]12 here.
Reply: 58.7

Ask: Enter recorded growth with SNB-19 CNS for N#Cc1c(-c2cccs2)cc(-c2cnccn2)nc1SCC(=O)Nc1ccc(Br)cc1 here.
Reply: 69.4

Ask: Enter recorded growth with SNB-19 CNS for COC(=O)C1(C)CCC[C@]2(C)[C@H]3C[C@H]4C(C(C)C)=C[C@]3(CC[C@@H]12)[C@H]1[C@@H]4[C@@H](OC(=O)c2ccco2)CC[C@@H]1OC(=O)c1ccco1 (stereo partly drawn) here.
Reply: 98.4

Ask: Enter recorded growth with SNB-19 CNS for Cc1ccc(C2=Nn3c(nnc3-c3ccccc3)SC2)cc1 here.
Reply: 31.4

Ask: Enter recorded growth with SNB-19 CNS for NC(N)=Nc1ccc(Oc2cccc(Nc3ccc(Br)c(C(F)(F)F)c3)c2)cc1 here.
Reply: -15.9

Ask: Enter recorded growth with SNB-19 CNS for CC1(C)CC[C@]2(C(=O)O)CC[C@]3(C)C(=CC[C@@H]4[C@@]5(C)CC/C(=N\OCCC#N)C(C)(C)[C@@H]5CC[C@]43C)[C@@H]2C1 here.
Reply: 104

Ask: Enter recorded growth with SNB-19 CNS for N#Cc1cnc2ccc(-c3cnc4[nH]ncc4c3)cc2c1N1CCc2cc(F)c(Cl)cc21 here.
Reply: 14.2

Ask: Enter recorded growth with SNB-19 CNS for CCN(CC)CCn1c2ccc(O)cc2c2sc3cc(OC)ccc3c(=O)c21 here.
Reply: 25.7

Ask: Enter recorded growth with SNB-19 CNS for COc1cc(OC)c(S(N)(=O)=O)cc1C(=O)/C=C/c1ccc(C)cc1 here.
Reply: 33.3

Ask: Enter recorded growth with SNB-19 CNS for CCOc1cccc(-c2nc3sccn3c2-c2ccnc(S(C)(=O)=O)n2)c1 here.
Reply: 91.8

Ask: Enter recorded growth with SNB-19 CNS for CS(=O)(=O)Nc1cc(-c2ccc3ncc(C#N)c(NCc4ccccc4)c3c2)cnc1Cl here.
Reply: 7.25

Ask: Enter recorded growth with SNB-19 CNS for O=S(=O)(NCCCNc1nccc(-c2[nH]c(-c3ccccc3)nc2-c2ccc(Cl)c(O)c2)n1)c1cccc(F)c1 here.
Reply: 82.9

Ask: Enter recorded growth with SNB-19 CNS for Nc1cc(F)ccc1NC(=O)c1ccc(NC(=O)C/C=C/c2cccnc2)cc1 here.
Reply: 46.7

Ask: Enter recorded growth with SNB-19 CNS for COc1c(N2CC3CCCNC3C2)c(F)cc2c(=O)c(C(=O)N/N=C/c3c[nH]c4ccccc34)cn(C3CC3)c12 (stereo not drawn) here.
Reply: 103

Ask: Enter recorded growth with SNB-19 CNS for COc1cc2oc(-c3cccc(N)c3)cc(=O)c2c(OC)c1OC here.
Reply: 97.8

Ask: Enter recorded growth with SNB-19 CNS for NS(=O)(=O)c1ccc(Nc2cc(-c3ccccc3)nc(SCC(=O)c3ccccc3)n2)cc1 here.
Reply: 91.7

Ask: Enter recorded growth with SNB-19 CNS for Cc1noc(C)c1CSc1nc2ccccc2n1-c1ccccc1 here.
Reply: 96.5

Ask: Enter recorded growth with SNB-19 CNS for CC(=O)O[C@@H]1C(=O)N(c2cnccn2)[C@H]1c1ccccc1[N+](=O)[O-] here.
Reply: 41.8

Ask: Enter recorded growth with SNB-19 CNS for CC1=CC(=O)C2=C(C)CC(OC(=O)CCc3ccccc3)[C@@H]3[C@H](OC(=O)[C@@H]3C)[C@@H]12 (stereo partly drawn) here.
Reply: 93.6

Ask: Enter recorded growth with SNB-19 CNS for O=S(=O)(NCCNc1nccc(-n2cnc3ccccc32)n1)c1ccc(Cl)cc1 here.
Reply: 97.7

Ask: Enter recorded growth with SNB-19 CNS for O=C(Nc1nonc1-c1ccccc1)c1ccc(C(F)(F)F)cc1 here.
Reply: 62

Ask: Enter recorded growth with SNB-19 CNS for CCN1CCN(Cc2cn(-c3ccc(S(N)(=O)=O)cc3)nn2)CC1 here.
Reply: 105
